So I've got a bunch of compounds here, and I need their growth values.
# Tested on: UACC-62 melanoma
# assay: NCI-60 one-dose screen, 48 h (100 = growth as untreated, 0 = no growth, -100 = all killed)
# stated_conditions: 10 µM unless noted
The panel holds about 83,000 compounds, 20% with a hit somewhere; the sample as a whole holds those more often.
Please respond with the number in % and leave the unit unwritten.

The reported UACC-62 melanoma growth of COc1c(C)cnc(CSc2nc(-c3ccc(C)cc3)cn2-c2ccc(Cl)cc2)c1C is 81.8

UACC-62 melanoma assay, compound COc1ccc(/C=N/NC(=O)Cn2c(-c3ccc(S(C)(=O)=O)cc3)nc3cc(Cl)ccc32)cc1 , recorded growth = 26.1

Value sought: growth, system UACC-62 melanoma, item O=c1[nH]c(NCc2nnnn2-c2ccc(Br)cc2)nc2sc3c(c12)CCCC3 . Result: 87.1

The reported UACC-62 melanoma growth of CC(C)(O)c1cccc(F)c1 is 88.7

Item CCN(CC)CCOC(=O)Nc1ccccc1Cl was tested on UACC-62 melanoma; the reported growth is 99.2

Field growth (system: UACC-62 melanoma) for entry CN(C)c1ccc(/C=N/NC(=O)COc2cc(=O)n(C)c3ccccc23)cc1 = 88.5
